# Test system: MOLT-4
# assaySummary: NCI tumour cell line growth inhibition, 48 h
The source made the active and inactive calls. Cut-off read from the data, not from the text of the source: active = GI50 up to about 1.1 µM and inactive = higher.
Outcome codes: true for active, false for inactive

{"compound": "C=CCO/N=C/c1cc(/N=C(/S)c2ccoc2C)ccc1Cl", "measuredOn": "MOLT-4", "cat": "false"}
{"compound": "COc1cccc(-c2cc(O)c3cc4c(cc3n2)OCO4)c1", "measuredOn": "MOLT-4", "cat": "true"}
{"compound": "Nc1ncnc2ccc(Sc3ccc4ncnc(N)c4c3)cc12", "measuredOn": "MOLT-4", "cat": "false"}
{"compound": "COc1ccc2cc3nc(O)cc(O)c3cc2c1OC", "measuredOn": "MOLT-4", "cat": "false"}
{"compound": "CCCC1C2=C(C(=O)OC2=O)C2C(CC)CC3=C(C(=O)OC3=O)C12 (stereo not drawn)", "measuredOn": "MOLT-4", "cat": "false"}
{"compound": "O=C(CC(C(=O)c1ccoc1)c1ccco1)c1ccco1 (stereo not drawn)", "measuredOn": "MOLT-4", "cat": "false"}
{"compound": "CCOC(=O)/C(=C/c1ccc(C(=O)OC)cc1)N(CC)CC", "measuredOn": "MOLT-4", "cat": "false"}
{"compound": "CC(C)(CN1CCCCC1)C(=O)CC(SCCS(=O)(=O)O)c1ccc(Cl)c(Cl)c1 (stereo not drawn)", "measuredOn": "MOLT-4", "cat": "false"}
{"compound": "Nc1ncnc2c1N=CN(Oc1ccccc1)N2", "measuredOn": "MOLT-4", "cat": "false"}
{"compound": "CCOC(=O)/C(C#N)=C\\Sc1ccccc1", "measuredOn": "MOLT-4", "cat": "false"}
{"compound": "O=C1CCCC/C1=C1\\C(=O)Nc2cc(F)ccc21", "measuredOn": "MOLT-4", "cat": "false"}
{"compound": "Cc1ccc(-c2ccc(Nc3c4ccccc4nc4ccccc34)cc2)cn1", "measuredOn": "MOLT-4", "cat": "true"}
{"compound": "COc1cccc(OCC(=N/NC(=O)c2ccncc2)/N=C/c2cccnc2)c1", "measuredOn": "MOLT-4", "cat": "false"}
{"compound": "Cc1nc2ccc(F)cc2c(Cl)c1CCCl", "measuredOn": "MOLT-4", "cat": "false"}
{"compound": "CCCCN(CCCC)CC(C(=O)Nc1ccc([N+](=O)[O-])cc1[N+](=O)[O-])/C(C)=N\\NC(=O)C[N+](C)(C)C (stereo not drawn)", "measuredOn": "MOLT-4", "cat": "false"}
{"compound": "O=C1/C(=C/c2ccccc2)CN(C(=O)OCC(Cl)(Cl)Cl)C/C1=C\\c1ccccc1", "measuredOn": "MOLT-4", "cat": "false"}
{"compound": "C/C(=C\\Cc1cc(O)ccc1O)CCc1c(C)c(O)c(O)c(C=O)c1C", "measuredOn": "MOLT-4", "cat": "false"}
{"compound": "O=C1c2ccccc2C(=O)N1C/C=N/NS(=O)(=O)c1ccc(Cl)cc1", "measuredOn": "MOLT-4", "cat": "false"}
{"compound": "O=C(CN1C(=O)c2ccccc2C1=O)C(O)CN1C(=O)c2ccccc2C1=O (stereo not drawn)", "measuredOn": "MOLT-4", "cat": "false"}
{"compound": "CN(C)C(=O)Oc1c(Br)cc(Br)cc1C(=O)OCc1ccccc1", "measuredOn": "MOLT-4", "cat": "false"}
{"compound": "CC(=O)CC(=O)ON(C)C(C)=O", "measuredOn": "MOLT-4", "cat": "false"}
{"compound": "Clc1ccc(-c2c(C3=NCCN3)nnn2-c2ccc(Cl)cc2)cc1", "measuredOn": "MOLT-4", "cat": "false"}
{"compound": "c1ccc(Cc2cccc3cc(-c4ccc(-c5ccccc5)cc4)[nH]c23)cc1", "measuredOn": "MOLT-4", "cat": "false"}

* * *

# Test system: HOP-92
# assaySummary: NCI tumour cell line growth inhibition, 48 h
The source made the active and inactive calls. Rule as the data show it: active = GI50 up to about 1.1 µM and inactive = higher.
Labels: active, inactive

{"compound": "CCN(CC)CCn1c2cc3c(cc2c(=O)c2cccnc21)OCO3", "cat": "inactive"}
{"compound": "COC(=O)C1=C(O)CCCC(C2CCCCC(=O)C2C(=O)OC)=C1 (stereo not given)", "cat": "inactive"}
{"compound": "O=C(OCCN=C1c2ccccc2CCc2ccccc21)c1cc([N+](=O)[O-])cc([N+](=O)[O-])c1", "cat": "inactive"}
{"compound": "O=C(CC(=O)C1CCOC1=O)C(=O)Nc1ccc(Cl)cc1 (stereo not given)", "cat": "inactive"}
{"compound": "S=C(/N=c1\\sc(NCc2ccccc2)nc2sc3c(c12)CCN(N1CCc2c(sc4nc(NCc5ccccc5)s/c(=N\\C(=S)NCc5ccccc5)c24)C1)C3)NCc1ccccc1", "cat": "inactive"}
{"compound": "O=C1C2Nc3ccccc3SC2C(=O)N1c1cccc([N+](=O)[O-])c1 (stereo not given)", "cat": "inactive"}
{"compound": "C/C(=N\\NS(=O)(=O)c1ccccc1)c1ccc(Cl)c(Cl)c1", "cat": "inactive"}
{"compound": "CCCC1C2=C(C(=O)OC2=O)C2C(CC)CC3=C(C(=O)OC3=O)C12 (stereo not given)", "cat": "inactive"}
{"compound": "CC(C)(C)OCC1NC(=O)[C@@H]2Cc3c([nH]c4ccccc34)C(C3CCCCC3)N2C1=O (stereo not given in full)", "cat": "inactive"}
{"compound": "C/C(CC(=O)Nc1ccc(C)c(C)c1)=N\\NC(N)=S", "cat": "inactive"}
{"compound": "CCc1nnc2sc(-c3ccc(-c4ccc(Cl)cc4Cl)o3)nn12", "cat": "inactive"}
{"compound": "c1cc2cc3c4c5c(cc6ccc7cc8cc9c%10c8c8c7c6c5c8c5c%10c(c1C9N1CCOCCOCCOCCOCCOCC1)c2c45)C3 (stereo not given)", "cat": "inactive"}
{"compound": "COC(=O)[C@@]12CC[C@]1(C(=O)OC)C1C(C)=CC(=O)O[C@@]12C (stereo not given in full)", "cat": "inactive"}
{"compound": "COc1ccc(N2C(=O)/C(=C\\c3cccc(Oc4ccccc4)c3)S(=O)(=O)C2c2ccccc2)cc1 (stereo not given)", "cat": "inactive"}
{"compound": "COc1cc(-c2cc(=O)c3c(OC)c(OC)c(OC)c(OC)c3o2)c(OC)c(OC)c1OC", "cat": "inactive"}
{"compound": "C=CCOC1OC(CO[Si](C)(C)C(C)(C)C)C(OCc2ccccc2)C(OCc2ccccc2)C1OCc1ccccc1 (stereo not given)", "cat": "inactive"}
{"compound": "COC(=O)N/N=C(\\C)C(CN1CCOCC1)C(c1ccccc1)c1cc2ccccc2oc1=O (stereo not given)", "cat": "inactive"}
{"compound": "CC(CC(=O)Nc1ccc(NC(=O)CC(C)/N=N\\C(N)=O)cc1)/N=N\\C(N)=O (stereo not given)", "cat": "inactive"}
{"compound": "Cc1c(C(=O)c2ccc(N)c3ccccc23)c2ccccc2n1CCN1CCOCC1", "cat": "inactive"}
{"compound": "CC1(C)CCCC2(C)C3=C(CCC12)C(=O)OC3 (stereo not given)", "cat": "inactive"}
{"compound": "COc1ccc2cc(CNCCCN3CCN(CCCNCc4ccc5cc(OC)ccc5c4)CC3)ccc2c1", "cat": "inactive"}
{"compound": "O=[As](O)(O)c1ccc(/N=N/c2ccc([As](=O)(O)O)cc2)cc1", "cat": "inactive"}
{"compound": "CC12CCC3c4ccc(O)cc4CCC3C1C/C(=N\\O)C2O (stereo not given)", "cat": "inactive"}
{"compound": "CCCN1CN(C(C(=O)N[C@@H]2C(=O)N3C2SC(C)(C)C3C(=O)O)c2ccc(O)cc2)CSC1=S (stereo not given in full)", "cat": "inactive"}
{"compound": "Cc1cc([N+](=O)[O-])ccc1NC(=O)C(=O)C(C(=O)c1ccccc1-c1ccccc1)C1OC(=O)c2ccccc21 (stereo not given)", "cat": "inactive"}
{"compound": "Cc1c(N2C(=O)/C(=C/c3ccc(N(CCC#N)CCC#N)cc3)N=C2c2ccccc2)c(=O)n(-c2ccccc2)n1C", "cat": "inactive"}
{"compound": "COC(=O)c1cccc(COc2ccc([N+](=O)[O-])cc2Cl)c1", "cat": "inactive"}
{"compound": "O=S(=O)(O)c1ccc2cc(/N=N/c3c(O)ccc4ccccc34)ccc2c1", "cat": "inactive"}
{"compound": "Cc1c2nc3ccccc3sc-2cc(=O)c1C", "cat": "inactive"}
{"compound": "Cc1[nH]c(=O)nc(N(CCO)/N=C/c2ccccc2Cl)c1C(=O)Nc1cc(Cl)cc(Cl)c1", "cat": "inactive"}
{"compound": "CN(CCO)c1nc2c(c(=O)[nH]1)CNCC2", "cat": "inactive"}
{"compound": "Nc1ncnc2c1ncn2C1OC(CSC(F)(F)F)C(O)C1O (stereo not given)", "cat": "inactive"}
{"compound": "Cc1ccc(C(C2C(=O)N(C)C(=O)N(C)C2=O)C(F)(F)C(=O)N(C)C)cc1 (stereo not given)", "cat": "inactive"}
{"compound": "O=P1(Cc2ccccc2)c2ccccc2-c2ccccc21", "cat": "active"}
{"compound": "[N-]=[N+]=NCC(O)Cn1cnc2c(NC(=O)c3ccccc3)ncnc21 (stereo not given)", "cat": "inactive"}
{"compound": "COc1ccc2c(O)c(S(=O)(=O)c3ccc(C)cc3)c(=O)oc2c1OC", "cat": "inactive"}
{"compound": "COC1(OC)c2no[n+]([O-])c2CCC1O (stereo not given)", "cat": "active"}
{"compound": "c1ccc2c(c1)c1c(n2CCOCCN2CCOCC2)CCCC1", "cat": "inactive"}
{"compound": "Nc1ccc(C(=O)NN2C(=O)C(Cl)C2c2cccc(O)c2)cc1 (stereo not given)", "cat": "inactive"}
{"compound": "OC(COc1cccc2ccccc12)CN1CCOCC1 (stereo not given)", "cat": "inactive"}
